- MEASURED_TARGET: NOS1 (Rattus norvegicus, UniProt P29476)
- ASSAY_OVERVIEW: 14-C-L-arginine to 14-C-L-citrulline conversion by purified recombinant NOS1
- Type: biochemical
- EXPERIMENTAL_CONTEXT: purified recombinant enzyme, 60 min, 37°C
Reported values of Estimated ED50 NOS1 for individual entries

COMPOUND	MEASURED_TARGET	Estimated ED50 NOS1, µM
CC1(C)N([O])C(c2ccc(C(=O)[O-])cc2)=[N+]([O-])C1(C)C.[K+] [Carboxy-PTIO]	NOS1 (Rattus norvegicus, UniProt P29476)	1360.0
C/C1=C2/[N-][C@H]([C@H](CC(N)=O)[C@@]2(C)CCC(=O)NC[C@@H](C)OP(=O)([O-])O[C@H]2[C@@H](O)[C@@H](n3cnc4cc(C)c(C)cc43)O[C@@H]2CO)[C@]2(C)N=C(/C(C)=C3N=C(/C=C4N=C1[C@@H](CCC(N)=O)C\4(C)C)[C@@H](CCC(N)=O)[C@]\3(C)CC(N)=O)[C@@H](CCC(N)=O)[C@]2(C)CC(N)=O.[Co+3].[OH-] [Hydroxocobalamin]	NOS1 (Rattus norvegicus, UniProt P29476)	5.7
C/C1=C2/[N-][C@H]([C@H](CC(N)=O)[C@@]2(C)CCC(=O)NC[C@@H](C)O)[C@]2(C)N=C(/C(C)=C3N=C(/C=C4N=C1[C@@H](CCC(N)=O)C\4(C)C)[C@@H](CCC(N)=O)[C@]\3(C)CC(N)=O)[C@@H](CCC(N)=O)[C@]2(C)CC(N)=O.[Co+3] [Cobinamide]	NOS1 (Rattus norvegicus, UniProt P29476)	15.0
C/C1=C2/[N-]C([C@H](CC(N)=O)[C@@]2(C)CCC(=O)NCC(C)O)[C@]2(C)N=C(/C(C)=C3N=C(/C=C4N=C1[C@@H](CCC(N)=O)C\4(C)C)[C@@H](CCC(N)=O)[C@]\3(C)CC(N)=O)[C@@H](CCC(N)=O)[C@]2(C)CC(N)=O.[C-]#N.[C-]#N.[Co] (some centres unmarked) [Dicyanocobinamide]	NOS1 (Rattus norvegicus, UniProt P29476)	0.23
C/C1=C2N=C(/C=C3N=C(/C(C)=C4\[N-]C(C(CC(N)=O)C4(C)CCC(=O)NCC(C)OP(=O)([O-])OC4C(CO)OC(n5cnc6cc(C)c(C)cc65)C4O)C4(C)N=C1C(CCC(N)=O)C4(C)CC(N)=O)C(CCC(N)=O)C\3(C)C)C(CCC(N)=O)C/2(C)CC(N)=O.NC(CCC(=O)NC(C[S-])C(=O)NCC(=O)O)C(=O)O.[Co+3] (centres unmarked) [Glutathionylcobalamin]	NOS1 (Rattus norvegicus, UniProt P29476)	9.6

// data source = paper PMC2745708
